Molecular target: T1, cardiotoxin N (CTXN) (Naja atra (Taiwan cobra), UniProt P80245 22-81)
T1 sequence: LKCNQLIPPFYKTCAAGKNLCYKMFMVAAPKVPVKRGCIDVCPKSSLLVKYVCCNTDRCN
Assay: fluorescence quenching titration; 10 mM Tris-HCl pH 7.5, 1 mM EDTA, 100 mM NaCl; temperature not stated; […]
Conditions: protein: native; tags: none; label: 5'-FAM
EXPERIMENTAL_READOUT: pKd
Note on pKd: it is the negative log10 of concentration, concentration in mol/L.

Fill in: pKd of GCGAGGTGTTCGAGAGTTAGGGCGACATGACCAAACGTT (ssDNA) [FAM-bgt1] is ___ 5.05
